# Test system: T. brucei
# protocol_notes: Growth inhibition assay of T. brucei cell cultures (Alamar Blue, 48 h)
# Format: cell-based
# condition_label: Trypanosoma brucei; read-out: B) T. brucei EC50
result_type: log10(EC50) (log10 of the value in µM)

{"columns": ["chemical_smiles", "tested_system", "reported_result"],
 "data": [
  ["N#Cc1cc(Cl)cc(CN[C@H]2CCCN(c3nc4nc(Cl)ccc4[nH]3)C2)c1", "T. brucei", -0.95],
  ["Clc1ccc(CN[C@H]2CCN(c3nc4ccc(Cl)nc4[nH]3)C2)c(Cl)c1", "T. brucei", 1.04],
  ["C=CCOc1c(Cl)cc(Cl)cc1CN[C@H]1CCCN(c2nc3nc(Cl)ccc3[nH]2)C1", "T. brucei", -0.49],
  ["O=C(Cc1cc(Cl)cc(Cl)c1)NCc1nc2ccc(Br)cc2[nH]1", "T. brucei", 0.74],
  ["Clc1cc(Cl)c(OCC2CC2)c(CN[C@H]2CCCN(c3nc4nc(Cl)ccc4[nH]3)C2)c1", "T. brucei", -0.29],
  ["O=C(Cc1nc2ccc(Cl)cc2[nH]1)NCc1cc(Cl)cc(Cl)c1", "T. brucei", 1.18],
  ["O=C(CNc1cc(Cl)cc(Cl)c1)NCc1nc2ccc(Cl)nc2[nH]1", "T. brucei", 0.31]
]}
